Reported Phage binding ELISA, Anti-PSMA Fab (SEQ ID NOs: 19, 20) signal by item:
Molecular target: T1, Anti-PSMA Fab (SEQ ID NOs: 19, 20)
T1 construct: also called 006 PSMA Fab
Experiment: phage ELISA; biotinylated PSMA Fab on neutravidin plate, clonal phage supernatant, anti-M13-HRP detection;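 further: wells were preincubated with blocking buffer containing PSMA antigen or with blocking buffer only, then phage supernatant was added without washing for a brief incubation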
No unit in the answer, please; the number alone is enough.

Field: example entries. Status: answers known.
binder="AEKWCIPNWMCEAG [Phage-2144]" recorded_number=1.69
binder="DANWCKPTWMCAGF [Phage-2132]" recorded_number=1.7
binder="FEMLCTPPWMCVGL [Phage-2133]" recorded_number=1.7
binder="TERWCVPAWMCTLV [Phage-2135]" recorded_number=1.7
binder="EMKLCRPAWMCEYM [Phage-2141]" recorded_number=1.69

Next, consider the following binder.
Measured Phage binding ELISA, Anti-PSMA Fab (SEQ ID NOs: 19, 20) signal, VLKWCIPTWMCETQ [Phage-2137] : 1.7
